Reference source: PubChem BioAssay

Test system: wheat germ agglutinin (Triticum aestivum), Alexa647-labelled
Test: wheat germ agglutinin binders on compound microarrays, profiling panel, artefact control for SMM control-protein annotation, biochemical, small-molecule microarray, 635/667 nm fluorescence (AID 1140);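 note: score merges 667 nm feature emission with signal to noise over triplicate slides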
Details: WGA-A647 binding, 635 nm fluorescence, higher = more signal
Reported values of composite z-score for individual entries
Would you mind answering with just the numeric figure?

Recorded results for 10 compounds are shown here.
{"compound": "CCCCC(O)C1C=CC2C(=O)N(C3CCCCC3)C(=O)C2N1Nc1ccc(OC)cc1 (stereo not drawn)", "composite z-score": 1.14}
{"compound": "COCCOC(=O)N1C(=O)[C@@]2(c3ccccc31)[C@H](c1ccc(O)cc1)N1[C@H](c3ccccc3)[C@H](c3ccccc3)OC(=O)[C@H]1[C@@H]2C(=O)N1CCc2cc(OC)c(OC)cc2C1", "composite z-score": 0.216}
{"compound": "NC(=O)NCC#Cc1ccc2c(c1)[C@]1(C(=O)N2)[C@H](C(=O)N2CCCCCCC2)[C@H]2C(=O)O[C@H](c3ccccc3)[C@H](c3ccccc3)N2[C@@H]1c1ccc(OCCO)cc1", "composite z-score": 1.36}
{"compound": "Cc1ccc(S[C@]2(C(=O)NCCN3CCOCC3)CC(=O)N(Cc3cc(C(F)(F)F)cc(C(F)(F)F)c3)[C@@H]2c2ccc(CO)cc2I)cc1", "composite z-score": 0.0101}
{"compound": "NCCCCCNC(=O)[C@H]1C[C@H]2C(=O)NCC(=O)N2[C@H]1c1cccc(OCCO)c1", "composite z-score": 0.739}
{"compound": "COC(=O)c1ccc(C(O)C2C=CC3C(=O)N(C)C(=O)C3N2NC(=O)OC(C)(C)C)o1 (stereo not drawn)", "composite z-score": 0.436}
{"compound": "C=CCOC(=O)[C@@H]1[C@H]2C(=O)O[C@H](c3ccccc3)[C@H](c3ccccc3)N2[C@H](c2ccc(OCCOC(=O)[C@@H]3C[C@@H]4C(=O)NCC(=O)N4[C@@H]3c3cccc(OCCO)c3)cc2)[C@@]12C(=O)Nc1ccc(I)cc12", "composite z-score": 0.449}
{"compound": "CCOC(=O)C[C@H]1[C@H](OC(=O)c2ccc(C(=O)c3ccccc3)cc2)[C@@H](NC(=O)C2CCCCC2)c2cc(OCCCO)ccc2N1C(=O)c1ccccc1", "composite z-score": 0.203}
{"compound": "COc1ccc(C#Cc2ccc3c(c2)[C@]2(C(=O)N3)[C@H](C(=O)NC[C@H](O)c3ccccc3)[C@H]3C(=O)O[C@H](c4ccccc4)[C@H](c4ccccc4)N3[C@@H]2c2ccc(OCCO)cc2)cc1", "composite z-score": 1.13}
{"compound": "COCCOC(=O)N1C(=O)[C@@]2(c3cc(C#CCNC(N)=O)ccc31)[C@H](C(=O)N1CCc3cc(OC)c(OC)cc3C1)[C@H]1C(=O)O[C@H](c3ccccc3)[C@H](c3ccccc3)N1[C@@H]2c1ccc(OCCO)cc1", "composite z-score": 0.385}

q: Look up composite z-score with wheat germ agglutinin (Triticum aestivum), Alexa647-labelled for this compound: `[N-]=[N+]=NCc1ccccc1C[C@]1(C(=O)NCCN2CCOCC2)N=C(c2ccc(OCCCO)cc2)O[C@H]1c1ccccc1N=[N+]=[N-]`
a: 0.976

q: Now give it for `C[C@]1(C(=O)NCc2ccccc2)c2ccccc2C(=O)N(Cc2ccc(OC(F)(F)F)cc2)[C@H]1c1ccc(CO)cc1` too.
a: -0.403

q: Also, `C=CCNC(=O)[C@H]1[C@@H]2C(=O)O[C@@H](c3ccccc3)[C@@H](c3ccccc3)N2[C@@H](c2ccc(O)cc2)[C@]12C(=O)N(C(=O)OCCOC)c1ccc(C#CCCO)cc12` please.
a: -0.163
